measurement target: T1, human BACE1 ECD
T1 construct: analyte of the Octet assay (200 nM) and enzyme of the first short substrate assay; also called human BACE1 extracellular domain
T1 sequence (single chain, as listed by the source limits assumed): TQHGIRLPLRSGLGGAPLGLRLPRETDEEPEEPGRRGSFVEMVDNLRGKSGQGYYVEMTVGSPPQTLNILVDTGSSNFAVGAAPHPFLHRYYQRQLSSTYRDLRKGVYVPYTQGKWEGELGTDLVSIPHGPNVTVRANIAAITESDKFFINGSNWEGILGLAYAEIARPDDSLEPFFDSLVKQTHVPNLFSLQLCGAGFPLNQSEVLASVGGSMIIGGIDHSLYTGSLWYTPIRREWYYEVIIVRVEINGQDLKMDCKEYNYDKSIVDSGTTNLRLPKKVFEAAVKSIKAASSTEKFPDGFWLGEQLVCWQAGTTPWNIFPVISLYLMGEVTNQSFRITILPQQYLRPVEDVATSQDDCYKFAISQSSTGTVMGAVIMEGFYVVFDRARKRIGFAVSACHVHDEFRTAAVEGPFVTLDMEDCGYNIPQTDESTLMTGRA
protocol notes: Octet, pH 5.0;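 also: antibodies captured on anti-human capture sensor tips, dissociation monitored in PBS with BSA buffer, kinetics fitted with a one-to-one binding model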
pKd: −log10 of the molar value.

binder	pKd
6296 (antibody, V domains shown, anti-BACE1 IgG) VH: QLQLQESGPGLVKPSETLSLTCTVSGGSISSSSYYWGWIRQPPGKGLEWIGNIYYSGSTYYNPSLRGRVTISVDTSKNQFSLKLSSVTAADTAVYYCARLGHGYNYFDLWGRGTLVTVSS VL: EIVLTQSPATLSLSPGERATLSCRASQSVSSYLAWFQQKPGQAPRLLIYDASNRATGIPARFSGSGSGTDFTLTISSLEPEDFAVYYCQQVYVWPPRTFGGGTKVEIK	9.70
5990 (antibody, V domains shown, anti-BACE1 IgG) VH: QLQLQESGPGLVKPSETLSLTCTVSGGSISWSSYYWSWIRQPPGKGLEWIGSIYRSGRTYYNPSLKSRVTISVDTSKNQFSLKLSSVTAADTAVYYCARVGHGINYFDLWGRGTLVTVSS VL: EIVLTQSPATLSLSPGERATLSCRASRSVNSYLAWYQQKPGQAPRLLIYDASKRATGIPARFSGSGSGTDFTLTISSLEPEDFAVYYCQQVYTWPPRTFGGGTKVEIK	> 9.74
6276 (antibody, V domains shown, anti-BACE1 IgG) VH: QVQLVQSGAEVKKPGSSVKVSCKASGGTFRGYAISWVRQAPGQGLEWMGNIIPGLSTANYAQKFQGRVTITADESTSTAYMELSSLRSEDTAVYYCARSGGTKYGMLDVWGQGTMVTVSS VL: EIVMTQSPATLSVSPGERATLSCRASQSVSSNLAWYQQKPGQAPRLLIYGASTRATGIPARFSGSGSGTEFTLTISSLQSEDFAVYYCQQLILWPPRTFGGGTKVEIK	> 9.39
5987 (antibody, V domains shown, anti-BACE1 IgG) VH: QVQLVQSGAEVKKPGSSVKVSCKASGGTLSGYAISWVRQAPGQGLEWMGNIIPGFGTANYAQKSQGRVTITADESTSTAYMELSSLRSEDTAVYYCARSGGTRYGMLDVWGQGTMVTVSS VL: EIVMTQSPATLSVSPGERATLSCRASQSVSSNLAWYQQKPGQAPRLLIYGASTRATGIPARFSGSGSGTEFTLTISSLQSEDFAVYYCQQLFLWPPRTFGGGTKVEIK	> 9.60
6273 (antibody, V domains shown, anti-BACE1 IgG) VH: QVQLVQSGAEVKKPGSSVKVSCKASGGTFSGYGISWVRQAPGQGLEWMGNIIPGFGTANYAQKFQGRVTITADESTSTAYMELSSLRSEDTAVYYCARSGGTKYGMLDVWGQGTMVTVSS VL: EIVMTQSPATLSVSPGERATLSCRASQSVSSNIAWYQQKPGQAPRLLIYGASTRATGIPARFSGSGSGTEFTLTISSLQSEDFAVYYCQQLLLWPPRTFGGGTKVEIK	> 9.59
